Below, each of the substances is paired with its reported HSL mRNA value.
System: HSL
Assay: HSL mRNA expression in adipocytes (real-time PCR)
Type: cell-based, human
Settings: differentiating adipocytes transfected with oligomeric compound; Table 75
Description: Expression of the four hallmark genes, HSL, aP2, Glut4, and PPARγ, is also measured in adipocytes transfected with oligomeric compounds of the invention. Cells are lysed on day nine post-transfection and total RNA is harvested. The amount of total RNA in each sample is determined using a Ribogreen Assay (Invitrogen Life Technologies, Carlsbad, Calif.). […]
In the oligonucleotide strings, read from the 5' end, every base follows the letter of its sugar. An asterisk marks phosphorothioate; unmarked linkages are phosphodiester. Other units and linkages are bracketed, terminal groups are in braces. A string of capitals states the bases alone. e = 2'-O-(2-methoxyethyl) (MOE); [5mC] = 5-methylcytosine

// below: answered substances
327936 (antisense eA*e[5mC]*eA*eG*e[5mC]*eT*eG*eG*eT*eT*eG*eA*eA*eG*eG*eG*eG*eA*e[5mC]*e[5mC]*eA*eA) [compound 327936] :: 40 percentage of untreated control (UTC)
327949 (antisense e[5mC]*eA*e[5mC]*eA*eA*eA*eT*eT*e[5mC]*eG*eG*eA*eT*e[5mC]*eT*eA*e[5mC]*eA*eG*eG*eG*eT*eA) [compound 327949] :: 49 percentage of untreated control (UTC)

Moving on to another substance below.
Task item: Item under review: 327966 (antisense eA*eT*e[5mC]*e[5mC]*eA*eA*eT*e[5mC]*eA*eG*eT*eT*e[5mC]*e[5mC]*eT*eG*eA*eT*eG*e[5mC]*eA*eG*eT*eA) [compound 327966] . Reported HSL mRNA?
Reply: 56 percentage of untreated control (UTC)

Origin of the recorded values: patent US8178506B2
